# measurement_description: Inhibition of HCV BB7 NS5B polymerase after 15 mins
# Design: species or system Hepacivirus hominis
Listed here are compounds together with their documented IC50.
Enter your answer as a number in nM; do not include the unit.

Examples from the recorded data:
>>> print(df.to_string())
                                   compound  test_readout  reading
0  CCC[C@]1(CC(=O)O)OCCc2c1[nH]c1c(C)c(OC[C@@H](C)n3cccn3)cc(C#N)c21          IC50        7
1  CCCC1(CC(=O)O)OCCc2c1[nH]c1c(C)c(C(=O)NCc3ccccc3)cc(C#N)c21 (racemic)          IC50      670
2  CCCC1(CC(=O)O)OCCc2c1[nH]c1c(C)c(OCCN3CCCC3)cc(C#N)c21 (racemic)          IC50      950

Here is the next item to consider.
-- ask Quick one: IC50 of CCCC1(CC(=O)O)OCCc2c1[nH]c1c(C)c(C(=O)NC)cc(C#N)c21 (racemic) ?
-- reply 970
